The reported measurements were obtained from ChEMBL document CHEMBL4257565.

Target: Beta-secretase 1 (Homo sapiens)
Sequence (P56817 whole entry): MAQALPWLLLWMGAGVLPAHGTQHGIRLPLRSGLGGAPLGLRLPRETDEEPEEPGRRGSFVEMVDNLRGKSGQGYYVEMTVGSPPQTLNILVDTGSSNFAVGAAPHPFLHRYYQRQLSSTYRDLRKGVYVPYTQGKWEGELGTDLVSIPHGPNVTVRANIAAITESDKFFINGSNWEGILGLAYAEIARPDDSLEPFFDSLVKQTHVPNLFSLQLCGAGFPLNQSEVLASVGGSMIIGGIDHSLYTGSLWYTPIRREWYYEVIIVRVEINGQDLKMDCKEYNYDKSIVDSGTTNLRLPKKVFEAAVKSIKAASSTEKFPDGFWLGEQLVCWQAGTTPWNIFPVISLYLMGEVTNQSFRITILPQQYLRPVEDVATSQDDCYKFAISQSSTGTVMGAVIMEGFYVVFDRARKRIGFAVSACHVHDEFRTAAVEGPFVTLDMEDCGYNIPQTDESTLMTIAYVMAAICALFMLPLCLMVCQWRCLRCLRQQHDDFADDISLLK
Test: Inhibition of BACE1 in human SH-SY5Y cells harboring wild type APP695 assessed as reduction in amyloid beta (1 to 40) level after 24 hrs by ELISA method
metric: IC50 (µM)
Numeric only. Scale: µM

Quick note, IC50 for CN(C)Cc1ccccc1-c1ccc(NCCCN2CCCCC2)c(OCCCN2CCCCC2)c1 landed at 2.1

Quick note, IC50 for c1ccc(-c2ccc(NCCCN3CCCCC3)c(OCCN3CCCCC3)c2)c(CN2CCOCC2)c1 landed at 2.8

Quick note, IC50 for CN(C)Cc1ccn(-c2ccc(NCCCN3CCCCC3)c(OCCN3CCCCC3)c2)c1 landed at 5

Quick note, IC50 for CN1CCN(Cc2ccccc2-c2ccc(NCCCN3CCCCC3)c(OCCN3CCCCC3)c2)CC1 landed at 2.6

Quick note, IC50 for c1ccc(-c2cccc(OCCN3CCCCC3)c2)cc1 landed at 9.1

----------
Target: Beta-secretase 1 (Homo sapiens)
Test: Inhibition of BACE1 in human SH-SY5Y cells harboring wild type APP695 assessed as increase in AICD level at 3 uM by Western blot method relative to chloroquine
Format: cell-based
metric: fold change (FC)

Quick note, fold change (FC) for CN(C)Cc1ccccc1-c1ccc(NCCCN2CCCCC2)c(OCCN2CCCCC2)c1 landed at 3.6

Quick note, fold change (FC) for c1ccc(-c2ccc(NCCCN3CCCCC3)c(OCCN3CCCCC3)c2)c(CN2CCOCC2)c1 landed at 1.7

Quick note, fold change (FC) for CN(C)Cc1ccccc1-c1ccc(NCCN2CCCCC2)c(OCCCN2CCCCC2)c1 landed at 3.4

Quick note, fold change (FC) for CN(C)Cc1ccn(-c2ccc(NCCCN3CCCCC3)c(OCCN3CCCCC3)c2)c1 landed at 2

Quick note, fold change (FC) for CN1CCN(Cc2ccccc2-c2ccc(NCCCN3CCCCC3)c(OCCN3CCCCC3)c2)CC1 landed at 3.7

New cases:
Quick note, fold change (FC) for c1cc(-c2ccc(NCCCN3CCCCC3)c(OCCN3CCCCC3)c2)ccc1CN1CCCCC1 landed at 2.5

Quick note, fold change (FC) for CN(C)Cc1ccccc1-c1cccc(OCCN2CCCCC2)c1 landed at 0.7

Quick note, fold change (FC) for CN(C)Cc1ccccc1-c1ccc(NCCN2CCCCC2)c(OCCN2CCCCC2)c1 landed at 4.8

Quick note, fold change (FC) for CN(C)Cc1ccccc1-c1ccc(NCCCN2CCCCC2)c(OCCC2CCCCC2)c1 landed at 0.1

Quick note, fold change (FC) for c1ccc(-c2ccc(NCCCN3CCCCC3)c(OCCN3CCCCC3)c2)cc1 landed at 2.1

Quick note, fold change (FC) for c1cc(CN2CCCCC2)cc(-c2ccc(NCCCN3CCCCC3)c(OCCN3CCCCC3)c2)c1 landed at 2.6
